Catalogue of pKd readings, one per entry.
Molecular target: T1, hK1 (human tissue kallikrein 1), recombinant (human, UniProt P06870 25-262)
T1 construct: Expressed in P. pastoris from KLK1 cDNA and purified; enzymatically active; also called KLK1; Recombinant (Pichia) Kallikrein
Assay: SPR
Please report pKd as the negative decimal logarithm of the molar concentration, giving only the number.

INSERT INTO assay_data (binder, metric, recorded_result) VALUES
  ('M0097-F08 (Fab, V domains shown) VH: EVQLLESGGGLVQPGGSLRLSCAASGFTFSNYPMVWVRQAPGKGLEWVSVIGPSGGKTKYADSVKGRFTISRDNSKNTLYLQMNSLRAEDTAVYYCARVGVWYGMDVWGQGTTVTVSS VL: DIQMTQSPSTLSASVGDRVTISCRASQGIGTHLNWYQQKLGNVPKLLIYAASGLQSGVPPRFSGSGSGTDFTLTISSLHPEDSATYFCQQSYSVPRTFGQGTKVEIKR', 'pKd', 7.48),
  ('M0137-E01 (Fab, V domains shown, also called M137-E01) VH: EVQLLESGGGLVQPGGSLRLSCAASGFTFSRYSMTWVRQAPGKGLEWVSSIYPSGGKTTYADSVKGRFTISRDNSKNTLYLQMNSLRAEDTAVYYCASMVAPYYYDSSGYPPAEYFQHWGQGTLVTVSS VL: AQSELTQPPSASGTPGQRVTISCSGTNSNIGSNSVFWYQQLSGTAAPKVLILRNSQRPSGVSDRFSGSKSGTSASLAISGLRSEDEADYYCATWDDSLRSPVFGGGTKLTVLG', 'pKd', 8.89);

As a next step, examine the binder that follows.
Prompt: Consider the binder M0108-E10 (Fab, V domains shown) VH: EVQLLESGGGLVQPGGSLRLSCAASGFTFSRYRMVWVRQAPGKGLEWVSSIYPSGGYTKYADSVKGRFTISRDNSKNTLYLQMNSLRAEDTAVYYCARVITYNNFDSWGQGTLVTVSS VL: DIQMTQSPGTLSLSPGERATLSCRASQTVSSTYLAWYQQKPGQAPRLLIYGASSRATGIPDRFSGGGSGTDFTLTISRLEPEDFAVYYCQQYGSSPPRYTFGQGTKLEIKR and give its recorded pKd.
Completion: 7.23
